TARGET OR TEST SYSTEM: human NaV1.6 (hNaV1.6) (Homo sapiens, UniProt Q9UQD0)
Construct: expressed in transfected cells; host or cells: HEK-293
Sequence (Q9UQD0 whole entry): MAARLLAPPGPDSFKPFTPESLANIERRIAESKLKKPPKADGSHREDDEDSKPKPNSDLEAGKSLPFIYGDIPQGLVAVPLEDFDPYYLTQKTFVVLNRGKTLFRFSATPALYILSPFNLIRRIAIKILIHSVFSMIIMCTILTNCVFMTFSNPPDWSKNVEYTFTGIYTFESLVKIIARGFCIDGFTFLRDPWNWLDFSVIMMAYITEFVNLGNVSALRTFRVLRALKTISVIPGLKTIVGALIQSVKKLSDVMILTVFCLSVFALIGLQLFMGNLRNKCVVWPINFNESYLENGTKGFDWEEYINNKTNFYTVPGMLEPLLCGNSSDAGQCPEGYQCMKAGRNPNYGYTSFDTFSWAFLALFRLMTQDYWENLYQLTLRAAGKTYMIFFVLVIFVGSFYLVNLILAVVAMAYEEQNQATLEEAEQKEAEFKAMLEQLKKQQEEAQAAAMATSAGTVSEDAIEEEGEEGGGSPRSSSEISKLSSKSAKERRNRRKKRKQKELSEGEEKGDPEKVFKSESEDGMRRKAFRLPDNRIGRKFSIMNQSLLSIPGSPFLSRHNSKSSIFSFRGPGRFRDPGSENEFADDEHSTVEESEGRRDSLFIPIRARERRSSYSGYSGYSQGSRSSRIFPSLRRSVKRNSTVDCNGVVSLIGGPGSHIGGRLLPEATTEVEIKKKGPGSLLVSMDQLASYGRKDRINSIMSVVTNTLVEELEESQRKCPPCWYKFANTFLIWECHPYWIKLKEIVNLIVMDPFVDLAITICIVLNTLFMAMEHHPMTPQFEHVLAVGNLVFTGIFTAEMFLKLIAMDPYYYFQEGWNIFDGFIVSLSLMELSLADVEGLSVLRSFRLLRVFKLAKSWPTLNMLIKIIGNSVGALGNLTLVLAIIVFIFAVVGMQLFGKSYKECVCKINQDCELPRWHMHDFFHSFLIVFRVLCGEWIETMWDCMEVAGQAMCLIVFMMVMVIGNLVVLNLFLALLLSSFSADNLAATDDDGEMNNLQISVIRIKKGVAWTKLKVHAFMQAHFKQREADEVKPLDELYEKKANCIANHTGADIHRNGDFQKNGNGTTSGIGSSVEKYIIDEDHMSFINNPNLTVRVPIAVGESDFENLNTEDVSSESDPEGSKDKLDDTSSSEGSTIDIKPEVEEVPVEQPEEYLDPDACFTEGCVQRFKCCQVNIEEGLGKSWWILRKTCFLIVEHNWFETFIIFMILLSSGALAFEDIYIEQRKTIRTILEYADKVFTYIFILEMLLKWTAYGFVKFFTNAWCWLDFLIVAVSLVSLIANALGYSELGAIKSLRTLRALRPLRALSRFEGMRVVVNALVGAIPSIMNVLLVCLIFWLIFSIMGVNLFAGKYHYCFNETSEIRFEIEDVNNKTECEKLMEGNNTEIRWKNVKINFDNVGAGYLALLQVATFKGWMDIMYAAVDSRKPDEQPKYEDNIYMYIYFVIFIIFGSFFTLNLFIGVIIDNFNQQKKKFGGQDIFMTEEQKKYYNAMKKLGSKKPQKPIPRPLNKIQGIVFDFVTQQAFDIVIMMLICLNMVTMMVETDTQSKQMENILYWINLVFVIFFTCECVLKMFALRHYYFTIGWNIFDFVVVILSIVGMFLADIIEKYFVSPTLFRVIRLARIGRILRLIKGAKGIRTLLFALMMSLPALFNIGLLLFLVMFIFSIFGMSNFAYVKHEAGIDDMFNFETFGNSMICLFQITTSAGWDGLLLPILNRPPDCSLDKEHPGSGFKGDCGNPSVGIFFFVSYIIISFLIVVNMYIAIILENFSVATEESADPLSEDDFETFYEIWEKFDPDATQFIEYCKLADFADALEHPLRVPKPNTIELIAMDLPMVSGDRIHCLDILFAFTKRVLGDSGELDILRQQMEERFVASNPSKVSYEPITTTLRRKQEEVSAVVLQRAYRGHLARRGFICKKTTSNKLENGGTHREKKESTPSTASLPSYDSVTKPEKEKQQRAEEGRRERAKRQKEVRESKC
ASSAY PROCEDURE: Modulation of late sodium current (INaL) at hNaV1.6, PatchXpress electrophysiology
Type: cell-based
SETTINGS: HEK293, HEK-293 cells expressing recombinant human NaV 1.6, late current evoked by 300 nM ATX-II, read-out: NaV 1.6 Assay Data (percent inhibition of INaL at hNaV1.6)
Protocol: Functional characterization of exemplary compounds to modulate INaL expressed by the NaV1.6 voltage-gated sodium channel was accomplished using the PatchXpress™ high throughput electrophysiology platform (Molecular Devices, Sunnyvale, CA). […] INaL amplitude and stability were determined by analyzing the mean current amplitude over the final 20 ms of the test pulse. […]
Please respond with reported inhibition at 1 µM for every item in the list.

Recorded inhibition at 1 µM (compound CO[C@H](C)c1nnc2cnc(-c3cnc(OC4(C(F)(F)F)CCC4)c(F)c3)cn12 (single isomer, unassigned) [Compound I-3] ): 30 to 70%

For record COC(F)(F)c1nnc2cnc(-c3ccc([C@H]4CC4(F)F)cc3)cn12 (single isomer, unassigned) [Compound III-4] the listed inhibition at 1 µM is 30 to 70%

inhibition at 1 µM measured on COC1(c2nnc3cnc(-c4cnc(O[C@@H](C)C(F)(F)F)c(F)c4)cn23)CC1 [Compound II-3] = 30 to 70%

For this compound ( CCOC(C)(C)c1nnc2cnc(-c3cnc(OC(C)(C)C(F)(F)F)c(F)c3)cn12 [Compound II-11] ), measured inhibition at 1 µM is 30 to 70%

Measured inhibition at 1 µM of C[C@H](Oc1ccc(-c2cn3c(C(F)(F)Cl)nnc3cn2)cn1)C(F)(F)F [Compound II-7] : 30 to 70%

So for COC(C)(C)c1nnc2cnc(-c3cnc(OCC(F)(F)F)c(F)c3)cn12 [Compound II-4] , the logged inhibition at 1 µM turned out to be < 30%

Noted for CCOC(F)(F)c1nnc2cnc(-c3ccc(OC(F)(F)F)cc3C3CC3)cn12 [Compound III-2] : its inhibition at 1 µM reads > 70%

Lookup result for CCO[C@H](C)c1nnc2cnc(-c3cnc(OC(C)(C)C(F)(F)F)c(F)c3)cn12 [Compound I-13] ; measured inhibition at 1 µM: 30 to 70%

Please fill in: inhibition at 1 µM reported for CO[C@H](C)c1nnc2cnc(-c3cnc(O[C@H](C4CC4)C(F)(F)F)c(F)c3)cn12 (single isomer, unassigned) [Compound I-15] = 30 to 70%

Note to self: inhibition at 1 µM recorded for FC(F)(F)c1nnc2cnc(-c3ccc(O[C@@H](C4CC4)C(F)(F)F)nc3)cn12 [Compound III-15] was > 70%

Given item COC1(c2nnc3cnc(-c4cnc(OCC(F)(F)F)c(F)c4)cn23)CC1 [Compound II-1] , the value recorded as its inhibition at 1 µM is < 30%

Field inhibition at 1 µM (entry CCO[C@H](C)c1nnc2cnc(-c3cnc(OC4(C(F)(F)F)CCC4)c(F)c3)cn12 [Compound I-14] ) reads 30 to 70%

According to the records, this compound COC(F)(F)c1nnc2cnc(-c3ccc(COCC(F)(F)F)cc3C)cn12 [Compound III-6] displays inhibition at 1 µM of 30 to 70%

// recorded inhibition at 1 µM for CO[C@H](C)c1nnc2cnc(-c3ccc(OC4(C(F)(F)F)CCC4)nc3)cn12 (single isomer, unassigned) [Compound I-6] : 30 to 70%

For CCOC(F)(F)c1nnc2cnc(-c3ccc([C@@H](C)OCC(F)(F)F)cc3)cn12 (single isomer, unassigned) [Compound III-19] the compound record lists inhibition at 1 µM as < 30%

Record summary for CO[C@@H](C)c1nnc2cnc(-c3cnc(O[C@H](C4CC4)C(F)(F)F)c(F)c3)cn12 (single isomer, unassigned) [Compound I-16] : reported inhibition at 1 µM = 30 to 70%

Sure, the documented inhibition at 1 µM for C[C@H](Oc1ccc(-c2cn3c(C(F)F)nnc3cn2)cn1)C(F)(F)F [Compound III-16] is > 70%

What the record says about CCO[C@H](C)c1nnc2cnc(-c3ccc(OC(C)(C)C(F)(F)F)nc3)cn12 [Compound I-19] : inhibition at 1 µM is 30 to 70%

Lab note: measured inhibition at 1 µM of CO[C@@H](C)c1nnc2cnc(-c3ccc(OC4(C(F)(F)F)CCC4)nc3)cn12 (single isomer, unassigned) [Compound I-5] was 30 to 70%

Please fill in: inhibition at 1 µM reported for CO[C@@H](C)c1nnc2cnc(-c3cnc(OC4(C(F)(F)F)CCC4)c(F)c3)cn12 (single isomer, unassigned) [Compound I-4] = 30 to 70%

The value of inhibition at 1 µM measured for the compound CO[C@@H](C)c1nnc2cnc(-c3ccc(OC(C)(C)C(F)(F)F)nc3)cn12 (single isomer, unassigned) [Compound I-10] turned out to be 30 to 70%

inhibition at 1 µM for CCO[C@H](C)c1nnc2cnc(-c3ccc(OC4(C(F)(F)F)CCC4)nc3)cn12 [Compound I-20] is 30 to 70%

Lab note: measured inhibition at 1 µM of CO[C@H](C)c1nnc2cnc(-c3cnc(OC(C)(C)C(F)(F)F)c(F)c3)cn12 (single isomer, unassigned) [Compound I-1] was > 70%

Just so you know, measured inhibition at 1 µM for CCO[C@@H](C)c1nnc2cnc(-c3cnc(OC4(C(F)(F)F)CCC4)c(F)c3)cn12 [Compound I-7] came out at 30 to 70%

For record CCOC(F)(F)c1nnc2cnc(-c3ccc([C@@H](C)OCC(F)(F)F)cc3C)cn12 (single isomer, unassigned) [Compound III-9] the listed inhibition at 1 µM is 30 to 70%

Value of inhibition at 1 µM reported for the compound COC(C)(C)c1nnc2cnc(-c3ccc(OC(C)(C)C(F)(F)F)nc3)cn12 [Compound II-14] is 30 to 70%

Record CCOC(C)(C)c1nnc2cnc(-c3ccc(OC(C)(C)C(F)(F)F)nc3)cn12 [Compound II-15] . Reported inhibition at 1 µM: 30 to 70%

Value of measured inhibition at 1 µM for the entry CO[C@@H](C)c1nnc2cnc(-c3cnc(OC(C)(C)C(F)(F)F)c(F)c3)cn12 (single isomer, unassigned) [Compound I-2] : 30 to 70%

Looking up CCO[C@@H](C)c1nnc2cnc(-c3ccc(OC4(C(F)(F)F)CCC4)nc3)cn12 [Compound I-11] , I found its inhibition at 1 µM recorded as 30 to 70%

###

TARGET OR TEST SYSTEM: human NaV1.6 (hNaV1.6) (Homo sapiens, UniProt Q9UQD0)
Construct: expressed in transfected cells; host or cells: HEK-293
ASSAY PROCEDURE: Modulation of late sodium current (INaL) at hNaV1.6, PatchXpress electrophysiology
Format: cell-based
SETTINGS: HEK293, HEK-293 cells expressing recombinant human NaV 1.6, late current evoked by 300 nM ATX-II, read-out: NaV 1.6 Assay Data (percent inhibition of INaL at hNaV1.6)
REPORTED METRIC: inhibition at 1 µM

Input CO[C@H](C)c1nnc2cnc(-c3ccc(O[C@@H](C4CC4)C(F)(F)F)nc3)cn12 (single isomer, unassigned) [Compound I-22] . Output inhibition at 1 µM: < 30%

inhibition at 1 µM reported for this compound COC(C)(C)c1nnc2cnc(-c3cnc(OC4(C(F)(F)F)CCC4)c(F)c3)cn12 [Compound II-12] : > 70%

Notebook: FC(F)(F)Oc1ccc(-c2cn3c(C(F)(F)F)nnc3cn2)c(C2CC2)c1 [Compound III-1] , inhibition at 1 µM read as > 70%

// CO[C@H](C)c1nnc2cnc(-c3ccc(O[C@H](C4CC4)C(F)(F)F)nc3)cn12 (single isomer, unassigned) [Compound I-24] : inhibition at 1 µM value = < 30%

Value of measured inhibition at 1 µM for the entry COC(F)(F)c1nnc2cnc(-c3ccc([C@@H](C)OCC(F)(F)F)cc3)cn12 (single isomer, unassigned) [Compound III-17] : < 30%

Reported inhibition at 1 µM ( CCOC(F)(F)c1nnc2cnc(-c3ccc(COCC(F)(F)F)cc3)cn12 [Compound III-11] ) = 30 to 70%

Lab note: CO[C@H](C)c1nnc2cnc(-c3cnc(O[C@@H](C4CC4)C(F)(F)F)c(F)c3)cn12 (single isomer, unassigned) [Compound I-17] gave inhibition at 1 µM of < 30%

###

Please provide measured inhibition at 1 µM for the entries that follow.
TARGET OR TEST SYSTEM: human NaV1.6 (hNaV1.6) (Homo sapiens)
Construct: expressed in transfected cells; host or cells: HEK-293
ASSAY PROCEDURE: Modulation of late sodium current (INaL) at hNaV1.6, PatchXpress electrophysiology
Format: cell-based
SETTINGS: HEK293, HEK-293 cells expressing recombinant human NaV 1.6, late current evoked by 300 nM ATX-II, read-out: NaV 1.6 Assay Data (percent inhibition of INaL at hNaV1.6)

Summary for this compound, CO[C@@H](C)c1nnc2cnc(-c3ccc(O[C@H](C4CC4)C(F)(F)F)nc3)cn12 (single isomer, unassigned) [Compound I-23] : inhibition at 1 µM is < 30%

Lab note: measured inhibition at 1 µM of CO[C@@H](C)c1nnc2cnc(-c3ccc(O[C@@H](C4CC4)C(F)(F)F)nc3)cn12 (single isomer, unassigned) [Compound I-21] was < 30%

Input C[C@@H](Oc1ccc(-c2cn3c(C(F)F)nnc3cn2)cn1)C(F)(F)F [Compound III-13] . Output inhibition at 1 µM: > 70%

The reported value for COC(F)(F)c1nnc2cnc(-c3ccc([C@H]4CC4(F)F)cc3C)cn12 (single isomer, unassigned) [Compound III-7] in terms of inhibition at 1 µM is > 70%

Consider CO[C@@H](C)c1nnc2cnc(-c3cnc(O[C@@H](C4CC4)C(F)(F)F)c(F)c3)cn12 (single isomer, unassigned) [Compound I-18] . Its measured inhibition at 1 µM is 30 to 70%

// inhibition at 1 µM lookup, compound = CCO[C@@H](C)c1nnc2cnc(-c3ccc(OC(C)(C)C(F)(F)F)nc3)cn12 [Compound I-8] , result: 30 to 70%

According to the records, this compound CCOC(F)(F)c1nnc2cnc(-c3ccc(COCC(F)(F)F)cc3C)cn12 [Compound III-5] displays inhibition at 1 µM of 30 to 70%

Field inhibition at 1 µM (entry COC(F)(F)c1nnc2cnc(-c3ccc([C@@H]4CC4(F)F)cc3C)cn12 (single isomer, unassigned) [Compound III-8] ) reads > 70%

Entry COC(C)(C)c1nnc2cnc(-c3ccc(OCC(F)(F)F)nc3)cn12 [Compound II-5] — recorded inhibition at 1 µM = < 30%
